Target: Cytochrome P450 2E1 (Homo sapiens); note: in other assays of this panel Not Active means under 50% inhibition at 10 µM
Sequence (P05181 whole entry): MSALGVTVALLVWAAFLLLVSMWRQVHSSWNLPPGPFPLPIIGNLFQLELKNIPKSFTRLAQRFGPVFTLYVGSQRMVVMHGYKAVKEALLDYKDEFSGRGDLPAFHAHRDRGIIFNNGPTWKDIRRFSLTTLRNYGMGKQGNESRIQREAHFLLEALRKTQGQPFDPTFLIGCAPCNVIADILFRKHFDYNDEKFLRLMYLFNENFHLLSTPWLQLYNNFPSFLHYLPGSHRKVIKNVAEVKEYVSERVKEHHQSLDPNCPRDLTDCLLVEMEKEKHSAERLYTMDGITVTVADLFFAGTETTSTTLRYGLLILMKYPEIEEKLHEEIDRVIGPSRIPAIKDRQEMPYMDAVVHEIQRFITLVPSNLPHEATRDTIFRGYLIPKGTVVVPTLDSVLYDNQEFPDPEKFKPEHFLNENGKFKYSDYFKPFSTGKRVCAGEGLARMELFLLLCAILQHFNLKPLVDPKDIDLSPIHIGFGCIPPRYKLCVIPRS
Details: bti-tn-5b1-4
Experimental Endpoint: Ki

[
  {
    "Compound": "NS(=O)(=O)c1cc2c(cc1Cl)NCNS2(=O)=O [HYDROCHLOROTHIAZIDE]",
    "Measurement": "Not Active"
  },
  {
    "Compound": "CCOC(=O)OC(C)OC1=C(C(=O)Nc2ccccn2)N(C)S(=O)(=O)c2ccccc21 (stereo unspecified) [AMPIROXICAM]",
    "Measurement": "Not Active"
  },
  {
    "Compound": "CC1(C)S[C@@H]2[C@H](NC(=O)[C@H](N)c3ccc(O)cc3)C(=O)N2[C@H]1C(=O)O [AMOXICILLIN]",
    "Measurement": "Not Active"
  },
  {
    "Compound": "C=C1CC[C@H](O)C/C1=C/C=C1\\CCC[C@]2(C)[C@@H]([C@H](C)/C=C/[C@H](C)C(C)C)CC[C@@H]12 [ERGOCALCIFEROL]",
    "Measurement": "Not Active"
  },
  {
    "Compound": "C=C1C(=O)O[C@@H]2C3O[C@]3(C)CC/C=C(\\C)CC[C@@H]12 (stereo partly specified)",
    "Measurement": "Not Active"
  },
  {
    "Compound": "CC(C)(S)[C@@H](N)C(=O)O [PENICILLAMINE]",
    "Measurement": "Not Active"
  },
  {
    "Compound": "O=C1CN=C(c2ccccc2)c2cc([N+](=O)[O-])ccc2N1 [NITRAZEPAM]",
    "Measurement": "Not Active"
  },
  {
    "Compound": "C[C@]12CCC(=O)C=C1CC[C@@H]1[C@@H]2C(=O)C[C@@]2(C)[C@H]1CC[C@]2(O)C(=O)CO [CORTISONE]",
    "Measurement": "Not Active"
  },
  {
    "Compound": "COc1ccc(CN(CCN(C)C)c2ccccn2)cc1 [PYRILAMINE]",
    "Measurement": "Not Active"
  },
  {
    "Compound": "COC1=CC(=O)C[C@@H](C)[C@]12Oc1c(Cl)c(OC)cc(OC)c1C2=O [GRISEOFULVIN]",
    "Measurement": "Not Active"
  },
  {
    "Compound": "CC1=Nc2ccc(Cl)cc2S(=O)(=O)N1 [DIAZOXIDE]",
    "Measurement": "Not Active"
  },
  {
    "Compound": "CCC[C@@H]1C[C@@H](C(=O)N[C@@H]([C@H]2O[C@H](SC)[C@H](O)[C@@H](O)[C@H]2O)[C@@H](C)O)N(C)C1 [LINCOMYCIN]",
    "Measurement": "Not Active"
  },
  {
    "Compound": "O=C1NC(=O)C(c2ccccc2)(c2ccccc2)N1 [PHENYTOIN]",
    "Measurement": "Not Active"
  },
  {
    "Compound": "NCCCC[C@H](N[C@@H](CCc1ccccc1)C(=O)O)C(=O)N1CCC[C@H]1C(=O)O [LISINOPRIL ANHYDROUS]",
    "Measurement": "Not Active"
  },
  {
    "Compound": "CN1C[C@H](C(=O)N[C@]2(C)O[C@@]3(O)[C@@H]4CCCN4C(=O)[C@H](Cc4ccccc4)N3C2=O)C=C2c3cccc4[nH]cc(c34)C[C@H]21 [ERGOTAMINE]",
    "Measurement": "Not Active"
  },
  {
    "Compound": "CC(C)(O)c1ccccc1CC[C@@H](SCC1(CC(=O)O)CC1)c1cccc(/C=C/c2ccc3ccc(Cl)cc3n2)c1 [MONTELUKAST]",
    "Measurement": "Not Active"
  }
]

====

Assay: DRUGMATRIX: Leukotriene, BLT (LTB4) radioligand binding (ligand: [3H]LTB4)
Format: cell membranes, Membrane
Conditions: u-937; Not Active = under 50% inhibition at 10 µM

[
  {
    "Molecule": "NCCCC[C@H](N[C@@H](CCc1ccccc1)C(=O)O)C(=O)N1CCC[C@H]1C(=O)O [LISINOPRIL ANHYDROUS]",
    "Ki": "Not Active"
  },
  {
    "Molecule": "CC1=C(/C=C/C(C)=C/C=C/C(C)=C\\C(=O)O)C(C)(C)CCC1",
    "Ki": "Not Active"
  },
  {
    "Molecule": "CC(C)NC[C@H](O)COc1cccc2[nH]ccc12",
    "Ki": "Not Active"
  },
  {
    "Molecule": "C/C=C1\\[C@H]2C=C(C)C[C@]1(N)c1ccc(=O)[nH]c1C2",
    "Ki": "Not Active"
  },
  {
    "Molecule": "NNC(=O)c1ccncc1",
    "Ki": "Not Active"
  },
  {
    "Molecule": "C=C(C)[C@@H]1[C@H]2OC(=O)[C@@H]1[C@]1(O)C[C@H]3O[C@]34C(=O)O[C@H]2[C@]14C",
    "Ki": "Not Active"
  },
  {
    "Molecule": "CC1=Nc2ccc(Cl)cc2S(=O)(=O)N1 [DIAZOXIDE]",
    "Ki": "Not Active"
  },
  {
    "Molecule": "O=C1c2c(O)ccc(O)c2C(=O)c2c(NCCNCCO)ccc(NCCNCCO)c21",
    "Ki": "Not Active"
  },
  {
    "Molecule": "Oc1cccc2cccnc12",
    "Ki": "Not Active"
  },
  {
    "Molecule": "CCCSc1ccc2nc(NC(=O)OC)[nH]c2c1",
    "Ki": "Not Active"
  },
  {
    "Molecule": "C[C@]12CCC(=O)C=C1CC[C@@H]1[C@@H]2C(=O)C[C@@]2(C)[C@H]1CC[C@]2(O)C(=O)CO",
    "Ki": "Not Active"
  },
  {
    "Molecule": "CCOC(=O)[C@H](CCc1ccccc1)N[C@@H](C)C(=O)N1[C@H](C(=O)O)C[C@@H]2CCC[C@@H]21",
    "Ki": "Not Active"
  }
]

====

Here, each record is paired with measured IC50 data.
Biological target: Sigma non-opioid intracellular receptor 1 (Homo sapiens)
Sequence (Q99720 whole entry): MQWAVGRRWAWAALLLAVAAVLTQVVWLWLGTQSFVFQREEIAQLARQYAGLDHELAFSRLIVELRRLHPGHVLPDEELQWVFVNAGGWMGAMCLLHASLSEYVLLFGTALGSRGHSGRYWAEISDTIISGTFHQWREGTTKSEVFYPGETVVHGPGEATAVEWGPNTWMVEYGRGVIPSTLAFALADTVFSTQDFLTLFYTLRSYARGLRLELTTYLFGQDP
Test: DRUGMATRIX: Sigma1 radioligand binding (ligand: [3H] Haloperidol)
Assay type: cell membranes, Jurkat, Membrane
Details: Not Active = under 50% inhibition at 10 µM; read-out: IC50
Experimental Endpoint: IC50

[
  {
    "Compound": "CN(C)CCCC1(c2ccc(F)cc2)OCc2cc(C#N)ccc21 (stereo not drawn) [CITALOPRAM]",
    "Experimental Endpoint": "IC50",
    "Measurement": "398 nM"
  },
  {
    "Compound": "CN(C)CCCN1c2ccccc2CCc2ccc(Cl)cc21 [CLOMIPRAMINE]",
    "Experimental Endpoint": "IC50",
    "Measurement": "1360 nM"
  },
  {
    "Compound": "COc1ccc(CN(CCN(C)C)c2ccccn2)cc1 [PYRILAMINE]",
    "Experimental Endpoint": "IC50",
    "Measurement": "1560 nM"
  }
]

====

Biological target: Endothelin-1 receptor (Homo sapiens); note: in other assays of this panel Not Active means under 50% inhibition at 10 µM
Sequence (P25101 whole entry): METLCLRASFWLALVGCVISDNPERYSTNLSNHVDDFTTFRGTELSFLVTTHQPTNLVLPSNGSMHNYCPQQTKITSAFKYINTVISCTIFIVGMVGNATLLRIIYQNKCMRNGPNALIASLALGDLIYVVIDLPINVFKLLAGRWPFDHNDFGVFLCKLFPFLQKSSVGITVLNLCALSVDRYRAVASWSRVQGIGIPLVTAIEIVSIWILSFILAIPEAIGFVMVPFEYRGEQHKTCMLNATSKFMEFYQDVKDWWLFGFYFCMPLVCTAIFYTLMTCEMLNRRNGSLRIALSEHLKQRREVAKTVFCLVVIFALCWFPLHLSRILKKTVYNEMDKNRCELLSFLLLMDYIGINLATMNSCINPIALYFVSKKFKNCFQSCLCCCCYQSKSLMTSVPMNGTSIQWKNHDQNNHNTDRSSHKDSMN
Type: cell membranes, Membrane
Conditions: cho-k1

[
  {
    "Compound": "c1ccc2c(c1)cc1ccc3cccc4ccc2c1c34",
    "IC50": "Not Active"
  },
  {
    "Compound": "CCOC(=O)[C@H](CCc1ccccc1)N[C@@H](C)C(=O)N1[C@H](C(=O)O)C[C@@H]2CCC[C@@H]21",
    "IC50": "Not Active"
  },
  {
    "Compound": "CC1CN(c2cc3c(cc2F)c(=O)c(C(=O)O)cn3-c2ccc(F)cc2F)CCN1 (stereo not drawn)",
    "IC50": "Not Active"
  }
]

====

Target: Estrogen receptor beta (Homo sapiens); note: in other assays of this panel Not Active means under 50% inhibition at 10 µM
Sequence (Q92731 whole entry): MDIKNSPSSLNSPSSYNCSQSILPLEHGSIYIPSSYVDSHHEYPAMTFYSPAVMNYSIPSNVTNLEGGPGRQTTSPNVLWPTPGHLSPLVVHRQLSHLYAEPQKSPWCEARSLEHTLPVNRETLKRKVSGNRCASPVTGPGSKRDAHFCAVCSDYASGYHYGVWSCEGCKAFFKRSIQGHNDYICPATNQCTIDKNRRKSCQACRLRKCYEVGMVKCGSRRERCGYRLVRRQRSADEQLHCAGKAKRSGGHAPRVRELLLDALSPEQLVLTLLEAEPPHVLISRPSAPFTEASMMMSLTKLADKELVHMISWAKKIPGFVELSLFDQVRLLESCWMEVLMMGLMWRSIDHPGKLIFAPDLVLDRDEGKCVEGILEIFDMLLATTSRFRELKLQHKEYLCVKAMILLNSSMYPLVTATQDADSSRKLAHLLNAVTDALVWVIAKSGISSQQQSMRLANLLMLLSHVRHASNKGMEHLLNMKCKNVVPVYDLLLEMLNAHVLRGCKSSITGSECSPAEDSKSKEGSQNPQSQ
Details: sf9
Experimental Endpoint: IC50

[
  {
    "Compound": "CC(CCc1ccccc1)NCC(O)c1ccc(O)c(C(N)=O)c1 (centres undefined)",
    "Tested On": "Estrogen receptor beta (Homo sapiens)",
    "Experimental Endpoint": "IC50",
    "Measurement": "Not Active"
  },
  {
    "Compound": "CC(C)(C)NCC(O)c1ccc(O)c(CO)c1 (centres undefined)",
    "Tested On": "Estrogen receptor beta (Homo sapiens)",
    "Experimental Endpoint": "IC50",
    "Measurement": "Not Active"
  },
  {
    "Compound": "Nc1nc(=O)[nH]cc1F",
    "Tested On": "Estrogen receptor beta (Homo sapiens)",
    "Experimental Endpoint": "IC50",
    "Measurement": "Not Active"
  },
  {
    "Compound": "CN1C[C@H](C(=O)N[C@]2(C)O[C@@]3(O)[C@@H]4CCCN4C(=O)[C@H](Cc4ccccc4)N3C2=O)C=C2c3cccc4[nH]cc(c34)C[C@H]21",
    "Tested On": "Estrogen receptor beta (Homo sapiens)",
    "Experimental Endpoint": "IC50",
    "Measurement": "Not Active"
  }
]
